B1: TMEM175 (parent)
chain: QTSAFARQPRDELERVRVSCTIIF

- Variants of: B1
- protocol text: protein stability index of a GFP-peptide fusion (GPS, HEK-293T) (PSI 1-6); higher = more stable;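 further: lentivirally expressed fusions sorted by FACS into six bins by GFP to DsRed ratio, PSI derived from sequencing read proportions per bin multiplied by bin number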
- condition summary: c terminus: a fixed tail appended
// false strictly below 2 in protein stability index; true otherwise

Example results:
> print(dat)
   mutation.notation  category.label
1                Q1Y            true
2                Q8P            true
3                A4K           false

Task: Record F24S ; criterion: protein stability index no lower than 2. Met?
Result: true

Task: Check T2Y too.
Result: true

Task: Check C20T too.
Result: false

Task: Check P9Q too.
Result: false

Task: Check F24T too.
Result: false

Task: Check V16T too.
Result: false

Task: Check F5M too.
Result: true

Task: Check T21R too.
Result: false

Task: Check S19Y too.
Result: false

The reported measurements were obtained from the supplement of paper PMC10567573.
